- STUDY SYSTEM: Melanocortin receptor 3 (Homo sapiens, UniProt P41968)
- Sequence (P41968 whole entry): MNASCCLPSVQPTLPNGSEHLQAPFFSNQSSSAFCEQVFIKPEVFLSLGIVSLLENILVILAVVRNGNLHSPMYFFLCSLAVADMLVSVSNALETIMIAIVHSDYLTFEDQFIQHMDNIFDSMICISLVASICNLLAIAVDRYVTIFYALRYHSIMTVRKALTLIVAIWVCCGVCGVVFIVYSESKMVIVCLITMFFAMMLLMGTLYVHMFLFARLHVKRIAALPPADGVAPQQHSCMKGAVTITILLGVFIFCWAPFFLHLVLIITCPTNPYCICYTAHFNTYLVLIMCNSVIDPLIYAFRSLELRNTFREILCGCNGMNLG
- ASSAY DETAILS: Agonist activity at human MC3R expressed in HEK293 cells after 3 mins by cAMP assay
pEC50: −log10 of the molar value. Square brackets hold non-standard residues; d marks the D form. Peptide text beside a SMILES is read from it. dPhe(4-CF3) = N[C@H](Cc1ccc(C(F)(F)F)cc1)C(=O)O; dPhe(4-Br) = N[C@H](Cc1ccc(Br)cc1)C(=O)O; Nle = CCCC[C@H](N)C(=O)O
READOUT NAME: pEC50

I: CC(=O)N[C@@H](Cc1cnc[nH]1)C(=O)N[C@H](Cc1ccccc1)C(=O)N[C@@H](CCCN=C(N)N)C(=O)N[C@@H](Cc1c[nH]c2ccccc12)C(N)=O
II: CCCC[C@H](NC(=O)[C@@H](Cc1ccc(Br)cc1)NC(=O)[C@H](Cc1cnc[nH]1)NC(C)=O)C(=O)N[C@@H](Cc1c[nH]c2ccccc12)C(N)=O (Ac-H[dPhe(4-Br)][Nle]W-NH2)
III: CCCC[C@H](NC(=O)[C@@H](Cc1ccc(C(F)(F)F)cc1)NC(=O)[C@H](Cc1cnc[nH]1)NC(C)=O)C(=O)N[C@@H](Cc1c[nH]c2ccccc12)C(N)=O (Ac-H[dPhe(4-CF3)][Nle]W-NH2)
Given 3 molecules, produce a descending ranking by pEC50. List the labels, following the order given in the request.
I, II, III
(I: 8.15, II: 7.24, III: 6.60)
